Each recorded value in this set is attributed to patent US7868135B2.

# log10 of MIC annotations
test system: Staphylococcus aureus (MSSA); settings: 24 h
Starred links: 1 amine or outer side, 2 acyl side, 3 side chain; linkers in the order of their positions; H or OH if unused. Positions of bridges follow the written chain, without caps; N, C: chain ends. Non-standard residues stand in square brackets, D forms with d. Residues, ends and D or L forms follow the SMILES beside them. ξ: configuration not given here. *: point of attachment. X34 = CCCCCC(=O)Nc1cc(NC(=O)CCCCC)cc(C(=O)*)c1; ξAbu(βξ-NH2) = CC(N[*:3])C(N[*:1])C(=O)[*:2]; ξAsp(βξ-Me) = CC(C(=O)O)C(N)C(=O)O; X12 = O=C(c1ccc(NN[*:1])cc1)[*:2]; X13 = O=C(CCCCCCCCCCOc1ccccc1)*; ξAbu(3ξ-NH2) = CC(N)C(N)C(=O)O; Lauroyl = CCCCCCCCCCCC(=O)*; Pip = O=C(O)[CH]1CCCCN1
PROPERTY_MEASURED: log10 of MIC (log10 of the value in µg/mL)

>>> numeric_readout("CCCCCCCCCCCCCCC(=O)NC(CC(=O)O)C(=O)NC1C(=O)N2CCCCC2C(=O)NC(C(C)C(=O)O)C(=O)NC(CC(=O)O)C(=O)NCC(=O)NC(CC(=O)O)C(=O)NCC(=O)NC(C(C)NC(=O)CCNC(=O)[C@@H](N)CCCCN)C(=O)NC(C(C)C)C(=O)N2CCCC2C(=O)NC1C (stereo partly drawn) [Compound 155, C15-Amphomycin-9-(β-Ala)-Lys]")
0.90
>>> numeric_readout("CCCCCCCCCCCC(=O)NNc1ccc(C(=O)NC(CC(=O)O)C(=O)NC2C(=O)N3CCCCC3C(=O)NC(C(C)C(=O)O)C(=O)NC(CC(=O)O)C(=O)NCC(=O)NC(CC(=O)O)C(=O)NCC(=O)NC(C(C)N)C(=O)NC(C(C)C)C(=O)N3CCCC3C(=O)NC2C)cc1 (stereo not drawn) [Compound 21, C12-p-Hydrazinobenzoic Acid-Amphomycin] (Lauroyl-[X12]D[ξAbu(βξ-NH2)][Pip][ξAsp(βξ-Me)]DGDG[ξAbu(3ξ-NH2)]VP; lactam 3-C; configuration not given here)")
0.00
>>> numeric_readout("CCCCCC(=O)Nc1cc(NC(=O)CCCCC)cc(C(=O)NC(CC(=O)O)C(=O)NC2C(=O)N3CCCCC3C(=O)NC(C(C)C(=O)O)C(=O)NC(CC(=O)O)C(=O)NCC(=O)NC(CC(=O)O)C(=O)NCC(=O)NC(C(C)N)C(=O)NC(C(C)C)C(=O)N3CCCC3C(=O)NC2C)c1 (stereo not drawn) [Compound 319] (X34-D[ξAbu(βξ-NH2)][Pip][ξAsp(βξ-Me)]DGDG[ξAbu(3ξ-NH2)]VP; lactam 2-C; configuration not given here)")
1.81
>>> numeric_readout("CC(C)C1NC(=O)C(C(C)N)NC(=O)CNC(=O)C(CC(=O)O)NC(=O)CNC(=O)C(CC(=O)O)NC(=O)C(C(C)C(=O)O)NC(=O)C2CCCCN2C(=O)C(NC(=O)C(CC(=O)O)NC(=O)CCCCCCCCCCOc2ccccc2)C(C)NC(=O)C2CCCN2C1=O (stereo not drawn) [Compound 333, (11-(Phenoxy)Undecanoyl)-Amphomycin] (X13-D[ξAbu(βξ-NH2)][Pip][ξAsp(βξ-Me)]DGDG[ξAbu(3ξ-NH2)]VP; lactam 2-C; configuration not given here)")
0.00
>>> numeric_readout("CCCCCCCCCCCCNC(=O)NC(CC(=O)O)C(=O)NC1C(=O)N2CCCCC2C(=O)NC(C(C)C(=O)O)C(=O)NC(CC(=O)O)C(=O)NCC(=O)NC(CC(=O)O)C(=O)NCC(=O)NC(C(C)N)C(=O)NC(C(C)C)C(=O)N2CCCC2C(=O)NC1C (stereo not shown) [Compound 251, CH3—(CH2)11—NH—C(═O)-Amphomycin]")
0.30
>>> numeric_readout("CCCCCCCCCCCCCCC(=O)NC(CC(=O)O)C(=O)NC1C(=O)N2CCCCC2C(=O)NC(C(C)C(=O)O)C(=O)NC(CC(=O)O)C(=O)NCC(=O)NC(CC(=O)O)C(=O)NCC(=O)NC(C(C)NC(=O)CCCCCCC)C(=O)NC(C(C)C)C(=O)N2CCCC2C(=O)NC1C (stereo not shown) [Compound 205, C15-Amphomycin-9-C8]")
1.20

---

tested on: Enterococcus faecalis EFS0004 (VSE); test: Broad spectrum MIC, Table 17/18 B, C, D (CAMHB; + 0.625 mM calcium; + calcium and 30% bovine serum); assay type: cell-based; details: condition D: + calcium and 30% bovine serum, in µg/mL
PROPERTY_MEASURED: MIC, media condition D

>>> result("CCCCCCCCCCCCCCC(=O)NC(CC(=O)O)C(=O)NC1C(=O)N2CCCCC2C(=O)NC(C(C)C(=O)O)C(=O)NC(CC(=O)O)C(=O)NCC(=O)NC(CC(=O)O)C(=O)NCC(=O)NC(C(C)N)C(=O)NC(C(C)C)C(=O)N2CCCC2C(=O)NC1C (stereo not drawn)")
64
>>> result("CCCCCCCCCCCCCCC(=O)NC(CC(=O)O)C(=O)NC1C(=O)N2CCCCC2C(=O)NC(C(C)C(=O)O)C(=O)NC(CC(=O)O)C(=O)NCC(=O)NC(CC(=O)O)C(=O)NCC(=O)NC(C(C)NC(=O)[C@@H]2CCCN2)C(=O)NC(C(C)C)C(=O)N2CCCC2C(=O)NC1C (stereo partly drawn)")
">64"
>>> result("CCCCCCCCCCCCCCNC(=O)NC(CC(=O)O)C(=O)NC1C(=O)N2CCCCC2C(=O)NC(C(C)C(=O)O)C(=O)NC(CC(=O)O)C(=O)NCC(=O)NC(CC(=O)O)C(=O)NCC(=O)NC(C(C)N)C(=O)NC(C(C)C)C(=O)N2CCCC2C(=O)NC1C (stereo not drawn)")
"16-32"

---

# reported MIC; entries follow
system: Staphylococcus aureus (MSSA); conditions: 24 h
Starred links: 1 amine or outer side, 2 acyl side, 3 side chain; linkers in the order of their positions; H or OH if unused. Positions of bridges follow the written chain, without caps; N, C: chain ends. Non-standard residues stand in square brackets, D forms with d. Residues, ends and D or L forms follow the SMILES beside them. ξ: configuration not given here. *: point of attachment. ξAbu(βξ-NH2) = CC(N[*:3])C(N[*:1])C(=O)[*:2]; Stearoyl = CCCCCCCCCCCCCCCCCC(=O)*; ξAsp(βξ-Me) = CC(C(=O)O)C(N)C(=O)O; ξAbu(3ξ-NH2) = CC(N)C(N)C(=O)O; Pip = O=C(O)[CH]1CCCCN1
PROPERTY_MEASURED: MIC

>>> result("CCCCCCCCCCCCCCCCCC(=O)NCC(=O)NC(CC(=O)O)C(=O)NC1C(=O)N2CCCCC2C(=O)NC(C(C)C(=O)O)C(=O)NC(CC(=O)O)C(=O)NCC(=O)NC(CC(=O)O)C(=O)NCC(=O)NC(C(C)N)C(=O)NC(C(C)C)C(=O)N2CCCC2C(=O)NC1C (stereo not drawn) [Compound 107, C18-Gly-Amphomycin] (Stearoyl-GD[ξAbu(βξ-NH2)][Pip][ξAsp(βξ-Me)]DGDG[ξAbu(3ξ-NH2)]VP; lactam 3-C; configuration not given here)")
"2 µg/mL"
>>> result("CCCCCCCCCCCC(=O)NC(CC(=O)O)C(=O)NC1C(=O)N2CCCCC2C(=O)NC(C(C)C(=O)O)C(=O)NC(CC(=O)O)C(=O)NCC(=O)NC(CC(=O)O)C(=O)NCC(=O)NC(C(C)N)C(=O)NC(C(C)C)C(=O)N2CCCC2C(=O)NC1C (stereo not drawn)")
"4 to 8 µg/mL"
>>> result("CCCCCCCCCCCCCCC(=O)NC(CC(=O)O)C(=O)NC1C(=O)N2CCCCC2C(=O)NC(C(C)C(=O)O)C(=O)NC(CC(=O)O)C(=O)NCC(=O)NC(CC(=O)O)C(=O)NCC(=O)NC(C(C)NC(=O)CN(C)C(=O)[C@@H](N)CCCCN)C(=O)NC(C(C)C)C(=O)N2CCCC2C(=O)NC1C (stereo partly drawn)")
"0.5 to 1 µg/mL"

---

tested on: Staphylococcus aureus; assay type: cell-based; conditions: exposure one hour at 2 × MIC
PROPERTY_MEASURED: Post Antibiotic Effect (hours) 2 × MIC (h)

>>> numeric_readout("CCCCCCCCCCCC(=O)Nc1ccc(C(=O)NC(CC(=O)O)C(=O)NC2C(=O)N3CCCCC3C(=O)NC(C(C)C(=O)O)C(=O)NC(CC(=O)O)C(=O)NCC(=O)NC(CC(=O)O)C(=O)NCC(=O)NC(C(C)NC(=O)CCN)C(=O)NC(C(C)C)C(=O)N3CCCC3C(=O)NC2C)cc1 (stereo not shown)")
1.9
>>> numeric_readout("CCCCCCCCCCCCCCNC(=O)NC(CC(=O)O)C(=O)NC1C(=O)N2CCCCC2C(=O)NC(C(C)C(=O)O)C(=O)NC(CC(=O)O)C(=O)NCC(=O)NC(CC(=O)O)C(=O)NCC(=O)NC(C(C)NC(=O)CCN)C(=O)NC(C(C)C)C(=O)N2CCCC2C(=O)NC1C (stereo not shown)")
2.2
>>> numeric_readout("CCCCCCCCCCCCCCC(=O)NC(CC(=O)O)C(=O)NC1C(=O)N2CCCCC2C(=O)NC(C(C)C(=O)O)C(=O)NC(CC(=O)O)C(=O)NCC(=O)NC(CC(=O)O)C(=O)NCC(=O)NC(C(C)NC(=O)CNC(=O)[C@@H](N)CCCCN)C(=O)NC(C(C)C)C(=O)N2CCCC2C(=O)NC1C (stereo partly shown)")
1.9
>>> numeric_readout("CCCCCCCCCCCCCCC(=O)NC(CC(=O)O)C(=O)NC1C(=O)N2CCCCC2C(=O)NC(C(C)C(=O)O)C(=O)NC(CC(=O)O)C(=O)NCC(=O)NC(CC(=O)O)C(=O)NCC(=O)NC(C(C)NC(=O)CCN)C(=O)NC(C(C)C)C(=O)N2CCCC2C(=O)NC1C (stereo not shown)")
1.9
